Data provenance is the RNAGym collection of RNA variant scans (doi:10.1002/anie.201605470).

B1: Osa-1-4 twister ribozyme (parent)
chain: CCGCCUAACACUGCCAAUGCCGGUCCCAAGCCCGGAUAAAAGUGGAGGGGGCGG

variants of: B1; assay: self-cleavage, relative activity (ratio to wild type); higher = more cleavage; co-transcriptional
Catalogue of variants with associated self-cleavage
Reply with the value as a number alone.

The examples below pair each entry with its known result.
C20U G48A	0.1
A36G G48A	0.15
C14A G19A	0.1
G22C U37G	0.17

Now look at this entry.
Lookup: Please give the measured self-cleavage for this variant: A36C G49A
Found: 0.06
